B1: CPEB3 Ribozyme (parent)
chain: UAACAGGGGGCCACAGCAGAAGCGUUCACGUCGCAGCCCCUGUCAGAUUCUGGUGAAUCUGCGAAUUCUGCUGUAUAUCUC

# Variants of: B1
# Method: self-cleavage, relative activity (ratio to wild type); higher = more cleavage; in vitro, sequencing
Recorded self-cleavage determines the label; the label ranges are low (below 0.2), moderate (0.2 to below 0.4), high (0.4 or more)

Illustrative cases are given below, each with its answer.
{"Chain": "UAACAGGGGGCCACAGCAGAAGCGUUCACGUCGCAGCCCCUGUCAGAUUCUGGAGAAUCUGCGAACUCUGCUGUAUAUCUC [U54A U66C]", "Cat": "high"}
{"Chain": "UAACAGGGGGGCACAGCAGAAGCGUUCACGUCGCAGCCCCUGUCAGAUUCUGGUGAAUCUGCGAAUUCUGCUGAAUAUCUC [C11G U74A]", "Cat": "high"}
{"Chain": "UAACAGGGGACCACAGCAGAAGCGUUCACGUCGCAGCCCCUGUCAGAUUCUGGAGAAUCUGCGAAUUCUGCUGUAUAUCUC [G10A U54A]", "Cat": "moderate"}

input: Where would UAACAGGGGGCCACAGCAGAAGCGUUCCCGUCGCAGCCCCUGUCAGAUUCUGGUGAGUCUGCGAAUUCUGCUGUAUAUCUC [A28C A57G] land among the classes by reported self-cleavage?
output: high

input: Where would UAACAGGGGGCCACAGCAGAAGCGUUCACGCCGCAGCCCCUGUCAGAUUCUGGUGAAUCUGCGAAUUCUGCUGUAUGUCUC [U31C A77G] land among the classes by reported self-cleavage?
output: high

input: Where would UAACAGGAGGCCACAGCAGAAGCGUACACGUCGCAGCCCCUGUCAGAUUCUGGUGAAUCUGCGAAUUCUGCUGUAUAUCUC [G8A U26A] land among the classes by reported self-cleavage?
output: low

input: Where would UAACAGGGGGCCACAGCAGAAGCGUUCACGUCGCAGCCCCUGUCAGAUUCUGGUGAAUCUACGAAUUCUGCUAUAUAUCUC [G61A G73A] land among the classes by reported self-cleavage?
output: high

input: Where would UAACAGGGGGCCACAGCAGAAGCGAUCACGUCGCAGCCCCUGUCAGAUUCUGGUGAGUCUGCGAAUUCUGCUGUAUAUCUC [U25A A57G] land among the classes by reported self-cleavage?
output: moderate

input: Where would UAACAGGGGGCCACAGCAGAAGCGUGCACGUCGCAGCCCCUGUCAGAUUCUGGUGAAUCUGCGAUUUCUGCUGUAUAUCUC [U26G A65U] land among the classes by reported self-cleavage?
output: low

input: Where would UAACAGGGGGCCACAGCAGAAGCGUUCACGUCGCAGCCACUGUCAGAUUCUGGUGAAUCUGCGAAUUCUGCUGUAUAUCCC [C39A U80C] land among the classes by reported self-cleavage?
output: moderate

input: Where would UAACAGGGGGCCACAGCAGAAGCGUUCACGUCGCAGCCCCUGUCAGAUUCUGGUGAAUUUGCGAAUUCUGCUGUAUGUCUC [C59U A77G] land among the classes by reported self-cleavage?
output: high

input: Where would UAACAGGGGGCCACAGCAGAAGCGUUCACGUCGUAGCCCCUGUCAGAUUCUGGUGAAUCUGCGAAUGCUGCUGUAUAUCUC [C34U U67G] land among the classes by reported self-cleavage?
output: low

input: Where would UAACAGGGGGCCACAGCAGAAGCGUUCACGCCGCAGCCCCUGUCAGAUUCUGGUGAAUCUGCGAAUUCUGCUGUAUAUUUC [U31C C79U] land among the classes by reported self-cleavage?
output: high

input: Where would UAGCAGGGGGCCACCGCAGAAGCGUUCACGUCGCAGCCCCUGUCAGAUUCUGGUGAAUCUGCGAAUUCUGCUGUAUAUCUC [A3G A15C] land among the classes by reported self-cleavage?
output: high

input: Where would UAACAGGGGGCCACAGCAGAAGCGUUCACGUCGCAGCCCCUGUCAGAUACUGGUGAAACUGCGAAUUCUGCUGUAUAUCUC [U49A U58A] land among the classes by reported self-cleavage?
output: moderate

input: Where would UAACAGGGGUCCACAGCAGAAGCGUUCACGUCGCAGCCCCUGUCAGAUUCUGGUGAAUCUGUGAAUUCUGCUGUAUAUCUC [G10U C62U] land among the classes by reported self-cleavage?
output: low

input: Where would UAACAGGGGGCCACAGCAGAAGCGUUCACGUCGCGGCCCCUGUCAGAUUCUGGUGAAUCUGCGAAAUCUGCUGUAUAUCUC [A35G U66A] land among the classes by reported self-cleavage?
output: high

input: Where would UAACAGGGGGCCACAGCAGAAGCGUUCAUGUCGCAGCCCCUGCCAGAUUCUGGUGAAUCUGCGAAUUCUGCUGUAUAUCUC [C29U U43C] land among the classes by reported self-cleavage?
output: moderate

input: Where would UAACAGGGGGCCACAGCAGAAGCGUUCACGUCGCAGCCCCUGUCAGAUUCUGGUGAAUCUGCGAAUACUGAUGUAUAUCUC [U67A C71A] land among the classes by reported self-cleavage?
output: moderate

Reference source for all entries: the RNAGym collection of RNA variant scans (doi:10.1093/nar/gkz1192)
